- Assayed System: Telomerase reverse transcriptase (Homo sapiens)
- Sequence (O14746 whole entry): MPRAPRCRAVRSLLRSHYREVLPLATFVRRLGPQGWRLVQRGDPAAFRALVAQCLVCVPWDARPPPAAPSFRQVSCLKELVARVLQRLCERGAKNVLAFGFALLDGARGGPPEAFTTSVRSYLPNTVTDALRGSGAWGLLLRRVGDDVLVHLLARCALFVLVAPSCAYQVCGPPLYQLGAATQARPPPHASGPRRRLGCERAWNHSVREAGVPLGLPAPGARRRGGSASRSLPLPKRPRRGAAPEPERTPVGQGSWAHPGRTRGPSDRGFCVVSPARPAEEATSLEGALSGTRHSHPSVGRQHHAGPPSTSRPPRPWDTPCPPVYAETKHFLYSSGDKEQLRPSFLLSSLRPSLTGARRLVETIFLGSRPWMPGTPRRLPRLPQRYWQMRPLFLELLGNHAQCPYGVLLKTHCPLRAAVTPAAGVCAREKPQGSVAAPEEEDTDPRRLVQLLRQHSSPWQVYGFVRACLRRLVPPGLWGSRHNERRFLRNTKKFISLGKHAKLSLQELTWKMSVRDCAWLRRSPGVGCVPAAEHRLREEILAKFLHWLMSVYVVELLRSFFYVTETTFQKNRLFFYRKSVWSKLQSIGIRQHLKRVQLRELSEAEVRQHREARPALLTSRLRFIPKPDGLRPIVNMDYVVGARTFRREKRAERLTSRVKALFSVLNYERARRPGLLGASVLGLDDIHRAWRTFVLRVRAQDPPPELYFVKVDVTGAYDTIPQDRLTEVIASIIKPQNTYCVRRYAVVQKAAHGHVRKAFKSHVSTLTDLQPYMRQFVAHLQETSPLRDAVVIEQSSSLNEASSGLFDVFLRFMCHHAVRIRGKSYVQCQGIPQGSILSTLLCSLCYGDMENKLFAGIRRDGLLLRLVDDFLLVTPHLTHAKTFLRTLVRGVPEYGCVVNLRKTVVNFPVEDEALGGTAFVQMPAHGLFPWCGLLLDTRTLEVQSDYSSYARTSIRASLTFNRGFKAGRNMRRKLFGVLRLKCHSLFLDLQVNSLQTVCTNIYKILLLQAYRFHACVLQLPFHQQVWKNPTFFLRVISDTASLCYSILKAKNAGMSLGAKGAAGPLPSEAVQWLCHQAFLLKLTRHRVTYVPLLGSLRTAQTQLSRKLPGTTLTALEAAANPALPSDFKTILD
- Experimental Details: Inhibition of telomerase activity in human MGC803 cells after 24 hrs by TRAP-PCR-ELISA assay
pIC50: −log10 of the molar value.
Endpoint Name: pIC50

Record excerpt, results attached:
CC1=NN2C(=O)COc3ccccc3C2C1 (centres undefined)    4.83
CC1=NN2C(=O)COc3ccc(Cl)cc3C2C1 (centres undefined)    5.77
CC1=NN2C(=O)COc3ccc(C(F)(F)F)cc3C2C1 (centres undefined)    5.50
CC[n+]1c(-c2ccccc2)c2cc(N)ccc2c2ccc(N)cc21 [HOMIDIUM BROMIDE]    5.62

(1) CC1=NN2C(=O)COc3cc([N+](=O)[O-])ccc3C2C1 (centres undefined)
(2) COc1cccc2c1OCC(=O)N1N=C(C)CC21 (centres undefined)
(3) CC1=NN2C(=O)COc3c(F)cccc3C2C1 (centres undefined)
(4) CC1=NN2C(=O)COc3cc(C)ccc3C2C1 (centres undefined)
(5) CC1=NN2C(=O)COc3c(Br)cc(Br)cc3C2C1 (centres undefined)
Given 5 compounds, produce a descending ranking by pIC50. Answer format: list of labels, ordered as asked.
5, 3, 1, 2, 4

src = ChEMBL document CHEMBL2321715
